This listing pairs compounds with measured inhibition.
- study_target: AP-2 complex subunit beta (Homo sapiens)
- protocol_notes: inhibitors of arrestin peptide binding to AP2, pilot screen, biochemical, validation set, GST-AP2 beads, flow cytometry (AID 504541);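 further: AP2 carries R879A mutation and is captured from E. coli lysate; bead-bound FITC arrestin peptide fluorescence measuring arrestin peptide binding to AP2; 0% = DMSO wells and 100% = excess unlabeled arrestin peptide control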
- test_context: FITC arrestin peptide, at 10 µM, stronger effect = higher value, AP2 beta2 appendage fragment, R879A mutant
Express the result in % but write the number alone.

compound	inhibition [%]
CC(=O)Nc1nc(CCC(C)C)cc2c1c(=O)oc1ccccc12	2.41
Cc1nnc(SCC(=O)N2CCCC(C(=O)c3ccc(Cl)cc3)C2)o1 (configuration not stated)	-3.16

Ask: Quick one: inhibition of "O=C(c1ccc(O)cc1)c1ccc(O)cc1O" ?
Reply: 45.5

Ask: What value of inhibition has been recorded for this entry: C[C@H](NC(=O)OC(C)(C)C)C(=O)NCC1CCC(C(=O)O)CC1 (some centres not stated)
Reply: -1.54

Ask: inhibition lookup needed for "O=C1CCCCCN1Cc1ccccc1" , thanks.
Reply: -4.78

Ask: Tell me the measured inhibition of "Cc1cc(C(C)(C)C)c(O)c(C)c1CC1=NCCN1" , please.
Reply: -0.66

Ask: Query (compound): CC(C)OC(=O)CC1C(=O)NCCN1C(=S)NC(=O)c1cccs1 (configuration not stated) ; field requested: inhibition
Reply: -4.49

Ask: I would be grateful if you could share the reported inhibition for "CC(=O)Oc1ccc(C(=O)O)cc1OC(C)=O" .
Reply: -6.29

Ask: Find the recorded inhibition belonging to "O[C@@H](CNC[C@H](O)c1ccccc1)c1ccccc1" and report it.
Reply: 9.85

Ask: What inhibition value was documented for this compound, "CCOC(=O)/C=C1\NC(C)(C)Cc2cc(OC)c(OC)cc21" ?
Reply: -4.08

Ask: Would you kindly share the measured inhibition for "O=c1ccn([C@@H]2O[C@H](CO)[C@@H](O)[C@H]2O)c(=O)[nH]1" ?
Reply: 10.2

Ask: May I ask what inhibition has been recorded for "COc1cccc(CN2CCN(C(=O)c3ccc(-c4ccccc4)cc3)CC2)c1" ?
Reply: -7.96

Ask: inhibition for Cc1ccc2c(c1)C(O)(c1c(C)[nH]c3ccccc13)C(=O)N2 (configuration not stated) ?
Reply: -11.2

Ask: Need inhibition of "CC(C)OC(=O)C(C)(C)Oc1ccc(C(=O)c2ccc(Cl)cc2)cc1" , thanks.
Reply: -5.48

Ask: Given the entry COc1ccc(CCN(C)CCCC(C#N)(c2ccc(OC)c(OC)c2)C(C)C)cc1OC (configuration not stated) , report its measured inhibition.
Reply: 53.9

Ask: Requested read-out: inhibition. Entry: "Cn1cc(CN(CCO)Cc2cccs2)c(-c2cccc(Cl)c2)n1"
Reply: -0.41

Ask: Need inhibition of O=C(c1ccc([N+](=O)[O-])cc1)N1CCSC1c1ccccc1Cl (configuration not stated) , thanks.
Reply: -8.18

Ask: I have this compound here, "NC(=O)c1c(-c2ccccc2)oc2ccc(O)cc12" , and I need its recorded inhibition.
Reply: -7.96

Ask: Look up inhibition: "CC(=O)N1CC2(C)CN(C(C)=O)CC(C)(C1)C2"
Reply: -12.9

Ask: // lookup inhibition for "COC(=O)c1[nH]c2ccccc2c1NC(=O)CN1CCN(C/C=C/c2ccccc2)CC1"
Reply: 3.15

Ask: Returns the measured inhibition for the input compound. Input: CSc1ccc2c(c1)N(CCC1CCCCN1C)c1ccccc1S2 (configuration not stated)
Reply: 0.21

Ask: I have this compound here, "COc1cccc2c1C(=O)O/C2=C/c1ccc2c(c1)OCO2" , and I need its recorded inhibition.
Reply: -5.67

Ask: # inhibition lookup, item "CCOc1ccccc1C(=O)NCCC(=O)O"
Reply: 19.4

Ask: Quick one: inhibition for Nc1ncnc2c1ncn2C1OC(CO)C(O)C1O (configuration not stated) ?
Reply: -4.3

Hey, just so you know, these numbers are from PubChem BioAssay.
